target: recombinant soluble homotrimeric HA of A/California/4/09 (H1N1) (Influenza A virus A/California/04/2009 (H1N1)); assay: HA microarray, BCC supernatant; settings: remark: other sources report otherwise
MEASURE NAME: Trimeric HA Binding RLU (RLU)

[[record]]
binder = "TCN-523 (5248_A17) (antibody, V domains shown) VH: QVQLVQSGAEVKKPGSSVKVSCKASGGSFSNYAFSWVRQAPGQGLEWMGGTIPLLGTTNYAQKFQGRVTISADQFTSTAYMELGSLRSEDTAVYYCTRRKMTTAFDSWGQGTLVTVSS VL: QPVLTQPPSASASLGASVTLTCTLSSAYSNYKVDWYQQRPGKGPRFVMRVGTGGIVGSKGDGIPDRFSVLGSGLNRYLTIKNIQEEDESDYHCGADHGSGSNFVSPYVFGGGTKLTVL"
obs_value = 34700

[[record]]
binder = "TCN-563 (5237_B21) (antibody, V domains shown) VH: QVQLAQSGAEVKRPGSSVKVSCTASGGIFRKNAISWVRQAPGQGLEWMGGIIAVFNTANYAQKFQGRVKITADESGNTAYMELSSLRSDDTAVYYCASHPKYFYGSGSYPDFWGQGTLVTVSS VL: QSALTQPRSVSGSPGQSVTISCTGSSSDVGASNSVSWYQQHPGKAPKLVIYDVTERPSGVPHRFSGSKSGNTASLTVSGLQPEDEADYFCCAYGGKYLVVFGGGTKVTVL"
obs_value = 45200

[[record]]
binder = "TCN-545 (5082_I15) (antibody, V domains shown) VH: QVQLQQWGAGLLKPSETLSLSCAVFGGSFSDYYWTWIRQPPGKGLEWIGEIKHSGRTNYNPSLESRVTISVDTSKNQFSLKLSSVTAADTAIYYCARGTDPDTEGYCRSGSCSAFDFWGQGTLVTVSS VL: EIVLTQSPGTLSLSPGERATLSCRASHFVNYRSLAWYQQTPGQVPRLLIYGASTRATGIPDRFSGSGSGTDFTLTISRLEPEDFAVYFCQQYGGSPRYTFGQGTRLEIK"
obs_value = 365

